# EXPERIMENTAL_SYSTEM: hPTP1B1–285 (Homo sapiens, UniProt P18031)
# Sequence (P18031 1-285): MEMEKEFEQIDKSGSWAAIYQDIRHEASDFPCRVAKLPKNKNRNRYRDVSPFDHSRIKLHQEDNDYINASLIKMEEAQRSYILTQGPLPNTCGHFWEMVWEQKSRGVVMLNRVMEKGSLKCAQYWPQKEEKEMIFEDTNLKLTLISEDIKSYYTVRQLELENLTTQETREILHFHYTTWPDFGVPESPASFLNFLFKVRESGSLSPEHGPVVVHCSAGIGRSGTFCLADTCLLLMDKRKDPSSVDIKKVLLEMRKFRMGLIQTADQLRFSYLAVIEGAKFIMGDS
RESULT_TYPE: IC50 (µM)
Record the value in µM, omitting the unit from your answer.

Find IC50 (hPTP1B1–285 (Homo sapiens, UniProt P18031)) for the entry Cc1ccc(-n2ncc3c2C(C)(C)C2CCC4(C)C(C(=O)C=C5C6CC(C)(C(=O)O)CCC6(C)CCC54C)C2(C)C3)cc1 (stereo not shown)
25.1

---

# EXPERIMENTAL_SYSTEM: hPTP1B1–400 (Homo sapiens, UniProt P18031)
# PROCEDURE_SUMMARY: Kinetic studies of PTP1B (hPTP1B1–400);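 also: enzyme kinetics run across a range of substrate and inhibitor levels, control lacking inhibitor, triplicate runs, parameters derived by fitting Michaelis–Menten style equations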
# MEASUREMENT_CONDITIONS: ± S.D; hPTP1B1–400 with inhibitor
Answer each item with its documented K m.
Record the value in mM, omitting the unit from your answer.

Find K m (hPTP1B1–400 (Homo sapiens, UniProt P18031)) for the entry CC1(C(=O)O)CCC2(C)CCC3(C)C(=CC(=O)C4C5(C)Cc6c([nH]c7ccc(C(F)(F)F)cc67)C(C)(C)C5CCC43C)C2C1 (centres unmarked)
0.52

Find K m (hPTP1B1–400 (Homo sapiens, UniProt P18031)) for the entry CC1(C(=O)O)CCC2(C)CCC3(C)C(=CCC4C5(C)Cc6c([nH]c7ccc(C(F)(F)F)cc67)C(C)(C)C5CCC43C)C2C1 (centres unmarked)
0.53

Find K m (hPTP1B1–400 (Homo sapiens, UniProt P18031)) for the entry CC1(C)[C@@H](O)CC[C@]2(C)[C@H]3C(=O)C=C4[C@H]5C[C@@](C)(C(=O)O)CC[C@]5(C)CC[C@@]4(C)[C@]3(C)CC[C@@H]12
2.11

Find K m (hPTP1B1–400 (Homo sapiens, UniProt P18031)) for the entry Cc1ccc(-n2ncc3c2C(C)(C)C2CCC4(C)C(C(=O)C=C5C6CC(C)(C(=O)O)CCC6(C)CCC54C)C2(C)C3)cc1 (centres unmarked)
1.42

Find K m (hPTP1B1–400 (Homo sapiens, UniProt P18031)) for the entry CC1(C)[C@@H](O)CC[C@]2(C)[C@H]3C(=O)C=C4[C@@H]5C[C@@](C)(C(=O)O)CC[C@]5(C)CC[C@@]4(C)[C@]3(C)CC[C@@H]12
2.83

---

Answer each item with its documented pIC50.
# EXPERIMENTAL_SYSTEM: hPTP1B1–400 (Homo sapiens, UniProt P18031)
# Sequence (P18031 1-400): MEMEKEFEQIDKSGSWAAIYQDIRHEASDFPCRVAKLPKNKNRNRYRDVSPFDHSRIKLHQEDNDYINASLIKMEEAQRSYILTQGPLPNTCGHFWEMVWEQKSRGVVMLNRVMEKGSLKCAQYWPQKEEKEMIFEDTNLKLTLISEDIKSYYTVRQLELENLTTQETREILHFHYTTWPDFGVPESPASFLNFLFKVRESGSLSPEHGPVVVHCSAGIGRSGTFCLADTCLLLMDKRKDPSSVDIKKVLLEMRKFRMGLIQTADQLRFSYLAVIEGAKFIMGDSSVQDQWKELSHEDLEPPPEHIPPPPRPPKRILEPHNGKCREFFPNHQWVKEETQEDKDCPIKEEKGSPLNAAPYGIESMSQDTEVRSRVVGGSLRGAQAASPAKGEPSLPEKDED
# pIC50 is unitless: minus log10 of the molar concentration; print number only

Look up pIC50: CC1(C(=O)O)CCC2(C)CCC3(C)C(=CC(=O)C4C5(C)Cc6c([nH]c7ccc(C(F)(F)F)cc67)C(C)(C)C5CCC43C)C2C1 (stereo not shown) [FC‐114]
6.32

Look up pIC50: Cc1ccc(-n2ncc3c2C(C)(C)C2CCC4(C)C(C(=O)C=C5C6CC(C)(C(=O)O)CCC6(C)CCC54C)C2(C)C3)cc1 (stereo not shown) [FC‐122]
5.94

Look up pIC50: Cc1ccc(-n2ncc3c2C(C)(C)C2CCC4(C)C(CC=C5C6CC(C)(C(=O)O)CCC6(C)CCC54C)C2(C)C3)cc1 (stereo not shown) [Compound 5a]
5.69

Look up pIC50: CC1(C(=O)O)CCC2(C)CCC3(C)C(=CCC4C5(C)Cc6c([nH]c7ccc(C(F)(F)F)cc67)C(C)(C)C5CCC43C)C2C1 (stereo not shown) [Compound 3a]
5.35

---

# EXPERIMENTAL_SYSTEM: hPTP1B1–400 (Homo sapiens)
# PROCEDURE_SUMMARY: Kinetic studies of PTP1B (hPTP1B1–400)
# MEASUREMENT_CONDITIONS: ± S.D; hPTP1B1–400 with inhibitor
Answer each item with its documented V max.
Record the value in mM/min, omitting the unit from your answer.

Look up V max: CC1(C)[C@@H](O)CC[C@]2(C)[C@H]3C(=O)C=C4[C@@H]5C[C@@](C)(C(=O)O)CC[C@]5(C)CC[C@@]4(C)[C@]3(C)CC[C@@H]12 [18β‐GA, 18β‐glycyrrhetinic acid]
3.13

Look up V max: Cc1ccc(-n2ncc3c2C(C)(C)C2CCC4(C)C(C(=O)C=C5C6CC(C)(C(=O)O)CCC6(C)CCC54C)C2(C)C3)cc1 (centres unmarked) [Compound 5c]
1.54

Look up V max: CC1(C(=O)O)CCC2(C)CCC3(C)C(=CCC4C5(C)Cc6c([nH]c7ccc(C(F)(F)F)cc67)C(C)(C)C5CCC43C)C2C1 (centres unmarked) [Compound 3b]
0.63

Look up V max: CC1(C)[C@@H](O)CC[C@]2(C)[C@H]3C(=O)C=C4[C@H]5C[C@@](C)(C(=O)O)CC[C@]5(C)CC[C@@]4(C)[C@]3(C)CC[C@@H]12 [18α‐GA, 18α‐glycyrrhetinic acid]
1.94

Look up V max: CC1(C(=O)O)CCC2(C)CCC3(C)C(=CC(=O)C4C5(C)Cc6c([nH]c7ccc(C(F)(F)F)cc67)C(C)(C)C5CCC43C)C2C1 (centres unmarked) [Compound 3c]
0.62

---

# EXPERIMENTAL_SYSTEM: TCPTP (Homo sapiens, UniProt P17706)
# Sequence (P17706 whole entry): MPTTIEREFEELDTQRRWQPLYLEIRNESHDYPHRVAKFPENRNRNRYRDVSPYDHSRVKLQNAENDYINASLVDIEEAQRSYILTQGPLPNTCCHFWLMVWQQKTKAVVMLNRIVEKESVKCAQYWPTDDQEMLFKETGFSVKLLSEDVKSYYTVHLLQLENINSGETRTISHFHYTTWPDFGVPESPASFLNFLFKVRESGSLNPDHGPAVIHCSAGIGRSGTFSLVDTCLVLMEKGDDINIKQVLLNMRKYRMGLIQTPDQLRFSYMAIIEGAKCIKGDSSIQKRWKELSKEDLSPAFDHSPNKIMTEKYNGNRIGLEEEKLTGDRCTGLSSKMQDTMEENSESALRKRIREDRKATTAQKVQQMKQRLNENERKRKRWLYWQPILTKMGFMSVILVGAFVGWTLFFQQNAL
# PROCEDURE_SUMMARY: T‐cell protein tyrosine phosphatase (TCPTP) activity assay (p‐NPP)
# Format: biochemical
pIC50: −log10 of the molar value.
RESULT_TYPE: pIC50

Find pIC50 (TCPTP (Homo sapiens, UniProt P17706)) for the entry CC1(C)[C@@H](O)CC[C@]2(C)[C@H]3C(=O)C=C4[C@H]5C[C@@](C)(C(=O)O)CC[C@]5(C)CC[C@@]4(C)[C@]3(C)CC[C@@H]12
< 4.00

Find pIC50 (TCPTP (Homo sapiens, UniProt P17706)) for the entry CC1(C)[C@@H](O)CC[C@]2(C)[C@H]3C(=O)C=C4[C@@H]5C[C@@](C)(C(=O)O)CC[C@]5(C)CC[C@@]4(C)[C@]3(C)CC[C@@H]12
< 4.00

Find pIC50 (TCPTP (Homo sapiens, UniProt P17706)) for the entry C[C@H]1[C@H](C)CC[C@]2(C(=O)O)CC[C@]3(C)C(=CC[C@@H]4[C@@]5(C)CC[C@H](O)C(C)(C)[C@@H]5CC[C@]43C)[C@H]12
< 4.00

---

# EXPERIMENTAL_SYSTEM: hPTP1B1–400 (Homo sapiens)
# PROCEDURE_SUMMARY: Kinetic studies of PTP1B (hPTP1B1–400)
# MEASUREMENT_CONDITIONS: hPTP1B1–400
RESULT_TYPE: Inhibition type

Below, each entry is followed by its recorded Inhibition type result.
CC1(C(=O)O)CCC2(C)CCC3(C)C(=CC(=O)C4C5(C)Cc6c([nH]c7ccc(C(F)(F)F)cc67)C(C)(C)C5CCC43C)C2C1 (centres unmarked) [Compound 3c] :: uncompetitive inhibition
CC1(C)[C@@H](O)CC[C@]2(C)[C@H]3C(=O)C=C4[C@H]5C[C@@](C)(C(=O)O)CC[C@]5(C)CC[C@@]4(C)[C@]3(C)CC[C@@H]12 [18α‐GA, 18α‐glycyrrhetinic acid] :: uncompetitive inhibition
CC1(C(=O)O)CCC2(C)CCC3(C)C(=CCC4C5(C)Cc6c([nH]c7ccc(C(F)(F)F)cc67)C(C)(C)C5CCC43C)C2C1 (centres unmarked) [Compound 3b] :: uncompetitive inhibition
Cc1ccc(-n2ncc3c2C(C)(C)C2CCC4(C)C(C(=O)C=C5C6CC(C)(C(=O)O)CCC6(C)CCC54C)C2(C)C3)cc1 (centres unmarked) [Compound 5c] :: uncompetitive inhibition

Okay, now this compound:
Look up Inhibition type: CC1(C)[C@@H](O)CC[C@]2(C)[C@H]3C(=O)C=C4[C@@H]5C[C@@](C)(C(=O)O)CC[C@]5(C)CC[C@@]4(C)[C@]3(C)CC[C@@H]12 [18β‐GA, 18β‐glycyrrhetinic acid]
uncompetitive inhibition
